biological target: c-Src SH2; test: SH2 binding enrichment of the phosphorylated peptide, bacterial display (enrichment ratio); higher = better substrate or ligand; peptides without Tyr show the background;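 further: peptide library displayed on the E. coli surface as eCPX fusions, selected cells deep-sequenced, score is each peptide's frequency after selection divided by its frequency in the input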
For each record, write down the corresponding SH2 binding enrichment.
Numbers only.

RQIQSYTCEID [DES_Y331_H326R] : 0.674
LTPVKYLLSAT [GSDMC_Y26] : 0.537
KLKPIYFHTQG [AR_Y916_V912L] : 1.95
DIMDLYNQPEP [IL36A_Y96] : 0.557
SILTVYSKDNF [PANK2_Y400_A398T_YF] : 0.466
DDSNLYINVKL [MTHFD1_Y52] : 0.457

For every listed record, write down its SH2 binding enrichment.
1. FPRAWCRRSIA [KIAA1109_Y4272_Y4272C]
2. AIYEGYALPHA [ACTC1_Y171_P166A]
3. LHQSTYQRFDV [SLC7A14_Y693_YF]
4. VVVTKYCKEEL [ATP7B_Y1078_A1074V]

Result string:
1: 0.464; 2: 2.48; 3: 0.897; 4: 0.369
